Molecular target: Human FRA on IGROV-1 human ovarian adenocarcinoma cells (human, UniProt P15328 25-234)
Sequence (P15328 25-234 limits assumed): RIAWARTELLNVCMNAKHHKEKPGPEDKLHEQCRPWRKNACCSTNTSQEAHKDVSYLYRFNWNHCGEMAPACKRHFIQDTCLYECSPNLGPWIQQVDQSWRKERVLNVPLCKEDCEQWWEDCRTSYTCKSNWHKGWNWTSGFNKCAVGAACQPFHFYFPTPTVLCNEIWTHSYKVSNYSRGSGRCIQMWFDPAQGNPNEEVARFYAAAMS
Test: cell-based or functional assay
OBSERVED PROPERTY: INTL % (30 min) (%)
The reply should contain only the number, in %.

- BINDER: "MORAb-003 anti-FRA antibody, lot NB810-12 (low temperature; harvested 14 days after initiation of culture) (antibody, human IgG1, kappa, V domains shown, N-linked neutral glycans at Asn299 in SEQ ID NO: 5) VH: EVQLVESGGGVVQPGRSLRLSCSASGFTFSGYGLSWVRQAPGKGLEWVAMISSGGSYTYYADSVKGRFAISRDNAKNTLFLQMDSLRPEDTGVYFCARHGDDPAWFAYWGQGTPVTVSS VL: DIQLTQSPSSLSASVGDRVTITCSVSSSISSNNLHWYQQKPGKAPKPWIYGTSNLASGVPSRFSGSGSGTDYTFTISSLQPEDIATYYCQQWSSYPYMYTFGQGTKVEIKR"
  UNIT NAME: "%"
  INTL % (30 min): 21
- BINDER: "MORAb-003 anti-FRA antibody, lot NB809-65 (positive control; harvested 13 days after initiation of culture) (antibody, human IgG1, kappa, V domains shown, N-linked neutral glycans at Asn299 in SEQ ID NO: 5, also called Pos. ctl; positive control (round 2)) VH: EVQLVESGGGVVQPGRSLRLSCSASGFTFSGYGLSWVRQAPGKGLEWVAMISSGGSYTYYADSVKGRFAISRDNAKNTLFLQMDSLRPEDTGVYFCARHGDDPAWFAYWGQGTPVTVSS VL: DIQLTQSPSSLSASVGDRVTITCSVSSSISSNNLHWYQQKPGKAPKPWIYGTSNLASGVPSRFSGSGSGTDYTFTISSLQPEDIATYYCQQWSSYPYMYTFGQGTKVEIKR"
  UNIT NAME: "%"
  INTL % (30 min): 13

Note: attention shifts to another entry.
INTL % (30 min) for MORAb-003 anti-FRA antibody, lot NB810-10 (positive control; harvested 14 days after initiation of culture) (antibody, human IgG1, kappa, V domains shown, N-linked neutral glycans at Asn299 in SEQ ID NO: 5, also called Pos. ctl; positive control (round 1)) VH: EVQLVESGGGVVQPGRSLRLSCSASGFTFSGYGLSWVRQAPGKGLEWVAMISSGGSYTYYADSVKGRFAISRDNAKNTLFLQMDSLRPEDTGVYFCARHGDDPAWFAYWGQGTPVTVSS VL: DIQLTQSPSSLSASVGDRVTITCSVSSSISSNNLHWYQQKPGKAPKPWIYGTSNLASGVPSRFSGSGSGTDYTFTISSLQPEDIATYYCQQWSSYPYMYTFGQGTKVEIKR ? 9
